Cited source: paper PMC12043042

- EXPERIMENT NOTES: Solubility in DMSO / organic solvents, determined visually
- Type: physicochemical
- RUN PARAMETERS: room temperature, concentration of 10 mg/mL (ca. 10 mg/mL for NMR)
Where a SMILES comes first, the peptide text is derived from it.

>  <MOLECULE>
C[C@@H]1NC(=O)[C@@H]2CCCN2C(=O)c2cccc(c2N)C(=O)CNC(=O)[C@H](Cc2ccccc2)NC(=O)CNC1=O [compound 7] (HELM PEPTIDE1{A.G.F.[Nc1c(C(=O)CN[*:1])cccc1C(=O)[*:2]].P}$PEPTIDE1,PEPTIDE1,1:R1-5:R2$$$V2.0)

>  <Solubility in DMSO (d6-DMSO)>
highly soluble

$$$$
>  <MOLECULE>
CC[C@H](C)[C@@H]1NC(=O)c2cccc(c2N)C(=O)CNC(=O)[C@H](Cc2ccccc2)NC(=O)CNC(=O)[C@H](C)NC1=O [compound 6] (HELM PEPTIDE1{A.G.F.[Nc1c(C(=O)CN[*:1])cccc1C(=O)[*:2]].I}$PEPTIDE1,PEPTIDE1,1:R1-5:R2$$$V2.0)

>  <Solubility in DMSO (d6-DMSO)>
highly soluble

$$$$
